GFP response vs DMSO by entry:
assay: RPL19A-GFP modulators, yeast TOR pathway, confirmation, cell-based, S. cerevisiae, flow cytometry, cherry picks, mother/daughter gates (AID 2270); details: S. cerevisiae RPL19A-GFP strain, 3 h, measured here: daughter cell gate, at 10 µM, stronger effect = lower value, 100 = same GFP as DMSO wells
# value in %; strip the unit string

Answered cases to consult:
Cc1ccc(N2C(=O)c3ccccc3NC2c2ccccc2O)cc1 (stereo unspecified)    98.1
CSc1ccc(/C=N/NC(=O)c2ccc(O)cc2)cc1    98.1
O=C(Nc1nc(-c2ccccn2)cs1)c1cc2ccccc2o1    96.7
O=C(c1cccc(COc2ccc(Cl)cc2Cl)c1)N1CCN(c2ccccn2)CC1    83.6
COc1ccccc1CNC(=O)CS(=O)Cc1nc(-c2ccc(OC)c(OC)c2)oc1C (stereo unspecified)    97.4
Cc1nnc(NC(=O)c2ccc(S(=O)(=O)N(C)Cc3ccccc3)cc2)o1    98.1

Note to self: GFP response vs DMSO recorded for O=C(CC1SC(=Nc2ccccc2F)N(CCN2CCOCC2)C1=O)Nc1ccc(F)cc1F (stereo unspecified) was 97.4

Note to self: GFP response vs DMSO recorded for `COc1cc(SSc2cc(OC)cc([N+](=O)[O-])c2N)c(N)c([N+](=O)[O-])c1` was 78.4

Note to self: GFP response vs DMSO recorded for `O=C(Nc1ccccc1O)c1ccccc1O` was 96.4

Note to self: GFP response vs DMSO recorded for `CCSC1=NCCN1S(=O)(=O)c1ccc(F)cc1` was 97.6

Note to self: GFP response vs DMSO recorded for `O=C(c1ccc(Cl)cc1)N1CCN(c2cccc3[nH]ccc23)CC1` was 94.1

Attribution: PubChem BioAssay
